# IC50 listing for each entry below
Test system: A549 (lung cancer)
assay.details: Antiproliferative activity, A549
Type: cell-based
assay.setup: Homo sapiens, A549, read-out: IC50 values A549
assay.readout: IC50 (nM)

CCC[C@H](O)[C@@H](C)C(=O)NC/C=C\C[C@@H](C)[C@@H](O)[C@H](C)[C@@H]1C/C=C\C[C@H](C)[C@H](OC(=O)CN)Cc2cc(OC)cc(O)c2C(=O)O1; 1740
CCC[C@H](O)[C@@H](C)C(=O)NC/C=C\C[C@@H](C)[C@@H](O)[C@H](C)[C@@H]1C/C=C\C[C@H](C)[C@H](OC(=O)[C@H](N)Cc2ccccc2)Cc2cc(OC)cc(O)c2C(=O)O1; 1280
CCC[C@H](O)[C@@H](C)C(=O)NC/C=C\C[C@@H](C)[C@@H](O)[C@H](C)[C@@H]1C/C=C\C[C@H](C)C(=O)Cc2cc(OC)cc(O)c2C(=O)O1; 1640
CCC[C@H](O)[C@@H](C)C(=O)NCCCC[C@@H](C)[C@@H](O)[C@H](C)[C@@H]1CCCC[C@H](C)[C@H](O)Cc2cc(OC)cc(O)c2C(=O)O1; 4000
CCC[C@H](O)[C@@H](C)C(=O)NC/C=C/C[C@@H](C)[C@@H](O)[C@H](C)[C@@H]1C/C=C\C[C@H](C)[C@H](O)Cc2cc(OC)cc(O)c2C(=O)O1; 1750
CCC[C@H](O)[C@@H](C)C(=O)NC/C=C\C[C@@H](C)[C@@H](O)[C@H](C)[C@@H]1C/C=C\C[C@H](C)[C@H](OC(C)=O)Cc2cc(OC)cc(O)c2C(=O)O1; 1960
CCC[C@H](O)[C@@H](C)C(=O)NC[C@H](O)[C@H](O)C[C@@H](C)[C@@H](O)[C@H](C)[C@@H]1C/C=C\C[C@H](C)[C@H](O)Cc2cc(OC)cc(O)c2C(=O)O1; 1540
CCC[C@H](OC(C)=O)[C@@H](C)C(=O)NC/C=C\C[C@@H](C)[C@@H](O)[C@H](C)[C@@H]1C/C=C\C[C@H](C)[C@H](OC(C)=O)Cc2cc(OC)cc(O)c2C(=O)O1; 3360
CCC[C@H](O)[C@@H](C)C(=O)NC[C@@H]1C[C@@H]1C[C@@H](C)[C@@H](O)[C@H](C)[C@@H]1C/C=C\C[C@H](C)[C@H](O)Cc2cc(OC)cc(O)c2C(=O)O1; 1240
CCC[C@H](O)[C@@H](C)C(=O)NC/C=C\C[C@@H](C)[C@@H](O)[C@H](C)[C@@H]1C/C=C\C[C@H](C)[C@H](OC(=O)[C@H](N)C(C)C)Cc2cc(OC)cc(O)c2C(=O)O1; 1330
CCC[C@H](OC(=O)[C@H](N)Cc1ccccc1)[C@@H](C)C(=O)NC/C=C\C[C@@H](C)[C@@H](O)[C@H](C)[C@@H]1C/C=C\C[C@H](C)[C@H](OC(=O)[C@H](N)Cc2ccccc2)Cc2cc(OC)cc(O)c2C(=O)O1; 2460
CCC[C@H](O)[C@@H](C)C(=O)NC/C=C\C[C@@H](C)[C@@H](O)[C@H](C)[C@@H]1C/C=C\C[C@H](C)[C@H](OC(=O)[C@@H](C)N)Cc2cc(OC)cc(O)c2C(=O)O1; 2450

This collection of values is drawn from paper PMC10205660.
